The measurements presented in this section are drawn from patent US20250345392A1.

# MEASUREMENT PROTOCOL: Clinical test in humans, three 30-min i.v. infusions 8 hours apart, plasma PK
# Assay type: in vivo
# CONDITION PARAMETERS: human, in vivo, iv, 250 ug/kg, three 30-min i.v. infusions 8 h apart, 250 μg/kg each, mean, read-out: AUC0-t2
Ends that are not written are not given here.
VALUE KIND: AUC
Express your answer as a number followed by its unit.

Enquiry: Endpoint output: AUC of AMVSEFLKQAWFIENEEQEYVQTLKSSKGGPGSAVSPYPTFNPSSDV-NH2 [Peptide 1] . Value?
Return: 2.35 µg·h/mL

----------
# MEASUREMENT PROTOCOL: Clinical test in humans, three 30-min i.v. infusions 8 hours apart, plasma PK
# Type: in vivo
# CONDITION PARAMETERS: human, in vivo, iv, 100 ug/kg, three 30-min i.v. infusions 8 h apart, 100 μg/kg each, GM, read-out: AUC0-tau3
Ends that are not written are not given here.
VALUE KIND: AUC (ng·h/mL)
One number for each entry, in ng·h/mL.

Enquiry: Endpoint output: AUC of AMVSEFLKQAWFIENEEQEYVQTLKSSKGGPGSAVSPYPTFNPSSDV-NH2 [Peptide 1] . Value?
Return: 1260

----------
# MEASUREMENT PROTOCOL: 14-day repeat IV dose toxicity study with toxicokinetic evaluation on Day 1 and 14 in dogs
# Format: in vivo, beagle dogs
# CONDITION PARAMETERS: dog, in vivo, iv, 1 mg/kg/day, IV 1.0 mg/kg/day, female, Day 1, read-out: Vz
Ends that are not written are not given here.
VALUE KIND: Vd
Express your answer as a number followed by its unit.

Enquiry: Endpoint output: Vd of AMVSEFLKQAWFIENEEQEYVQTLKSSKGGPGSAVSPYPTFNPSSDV-NH2 [Peptide 1] . Value?
Return: 0.232 L/kg

----------
# MEASUREMENT PROTOCOL: Clinical test in humans, three 30-min i.v. infusions 8 hours apart, plasma PK
# Format: in vivo
# CONDITION PARAMETERS: human, in vivo, iv, three 30-min i.v. infusions 8 h apart, 100 μg/kg each, mean, read-out: AUC0-tau1
Ends that are not written are not given here.
VALUE KIND: AUC (ng·h/mL)
One number for each entry, in ng·h/mL.

Enquiry: Endpoint output: AUC of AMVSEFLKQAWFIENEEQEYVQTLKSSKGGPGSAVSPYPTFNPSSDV-NH2 [Peptide 1] . Value?
Return: 1120

----------
# MEASUREMENT PROTOCOL: Clinical test in humans, single 30-min i.v. infusion, plasma PK
# Type: in vivo
# CONDITION PARAMETERS: human, in vivo, iv, 150 ug/kg, single 30-min i.v. infusion 150 μg/kg, GM
Ends that are not written are not given here.
VALUE KIND: AUC(0-inf)

Enquiry: Endpoint output: AUC(0-inf) of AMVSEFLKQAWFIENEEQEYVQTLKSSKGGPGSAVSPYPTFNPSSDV-NH2 [Peptide 1] . Value?
Return: 1490 ng·h/mL

----------
# MEASUREMENT PROTOCOL: 14-day repeat IV dose toxicity study with toxicokinetic evaluation on Day 1 and 14 in dogs
# Format: in vivo, beagle dogs
# CONDITION PARAMETERS: dog, in vivo, iv, 1 mg/kg/day, IV 1.0 mg/kg/day, male, Day 1
# Description: Peptide 1 in blood samples collected from animals used in the studies (rat and dog) has been measured by an LC-MS/MS method. Analysis of samples collected in the pharmacokinetic study in rats was performed prior to validation of the method. Prior to analysis of samples from the GLP toxicology studies, the method was validated according to GLP to ensure that it is selective, accurate, reproducible, and able to produce reliable results. […]
Ends that are not written are not given here.
VALUE KIND: C0 (ng/mL)
Numbers only, in ng/mL.

Enquiry: Endpoint output: C0 of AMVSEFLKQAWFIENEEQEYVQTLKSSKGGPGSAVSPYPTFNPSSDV-NH2 [Peptide 1] . Value?
Return: 4580

----------
# MEASUREMENT PROTOCOL: PK after single intravenous injection of Peptide 1 in male rats
# Parameters: species or system male Wistar (CRL: WI(Han)) rats
# CONDITION PARAMETERS: rat, in vivo, iv, 0.1 mg/kg, single IV 0.1 mg/kg, initial elimination phase, read-out: CL
# Protocol: Peptide 1 in blood samples collected from animals used in the studies (rat and dog) has been measured by an LC-MS/MS method. Analysis of samples collected in the pharmacokinetic study in rats was performed prior to validation of the method. […] Peptide 1 was quantifiable in all plasma samples in the study. […] Plasma samples obtained 60 minutes post dosing in Group 1 had plasma concentration of Peptide 1 below the limit of quantification.
Ends that are not written are not given here.
VALUE KIND: clearance (mL/min/kg)
Answers are plain numbers, in mL/min/kg.

Enquiry: Endpoint output: clearance of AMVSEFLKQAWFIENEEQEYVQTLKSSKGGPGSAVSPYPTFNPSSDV-NH2 [Peptide 1] . Value?
Return: 10

----------
# MEASUREMENT PROTOCOL: Clinical test in humans, three 30-min i.v. infusions 8 hours apart, plasma PK
# Format: in vivo
# CONDITION PARAMETERS: human, in vivo, iv, 250 ug/kg, three 30-min i.v. infusions 8 h apart, 250 μg/kg each, GM, read-out: tmax1
# Method: A total of 8 subjects were included in each group. In each group, 6 subjects received the active treatment and 2 received the placebo. […] Plasma samples were analyzed for Peptide 1 using validated Liquid chromatography—Tandem Mass spectrometry (LC-MS/MS) methods by Charles River Laboratories (CRL). […]
Ends that are not written are not given here.
VALUE KIND: Tmax (min)
One number for each entry, in min.

Enquiry: Endpoint output: Tmax of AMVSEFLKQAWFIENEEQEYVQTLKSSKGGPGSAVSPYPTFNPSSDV-NH2 [Peptide 1] . Value?
Return: 27.6

----------
# MEASUREMENT PROTOCOL: 14-day repeat dose IV toxicity study with toxicokinetic evaluation on Day 1 and Day 14 in rats
# Assay type: in vivo, Wistar rats
# CONDITION PARAMETERS: rat, in vivo, iv, 10 mg/kg/day, IV 10 mg/kg/day, male, Day 14, read-out: AUC0-∞ (converted)
Ends that are not written are not given here.
VALUE KIND: AUC(0-inf)
Express your answer as a number followed by its unit.

Enquiry: Endpoint output: AUC(0-inf) of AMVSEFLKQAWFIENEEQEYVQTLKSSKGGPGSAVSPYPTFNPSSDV-NH2 [Peptide 1] . Value?
Return: 9.13 µg·h/mL

----------
# MEASUREMENT PROTOCOL: Clinical test in humans, three 30-min i.v. infusions 8 hours apart, plasma PK
# Format: in vivo
# CONDITION PARAMETERS: human, in vivo, iv, three 30-min i.v. infusions 8 h apart, 250 μg/kg each, GM, read-out: AUC0-t2
Ends that are not written are not given here.
VALUE KIND: AUC (ng·h/mL)
Answers are plain numbers, in ng·h/mL.

Enquiry: Endpoint output: AUC of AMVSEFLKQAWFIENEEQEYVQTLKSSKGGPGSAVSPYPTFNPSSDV-NH2 [Peptide 1] . Value?
Return: 2300

----------
# MEASUREMENT PROTOCOL: 14-day repeat IV dose toxicity study with toxicokinetic evaluation on Day 1 and 14 in dogs
# Type: in vivo, beagle dogs
# CONDITION PARAMETERS: dog, in vivo, iv, 10 mg/kg/day, IV 10 mg/kg/day, male, Day 14, read-out: Cl
Ends that are not written are not given here.
VALUE KIND: clearance (mL/min/kg)
One number for each entry, in mL/min/kg.

Enquiry: Endpoint output: clearance of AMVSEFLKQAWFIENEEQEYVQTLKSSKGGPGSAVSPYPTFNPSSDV-NH2 [Peptide 1] . Value?
Return: 36.6

----------
# MEASUREMENT PROTOCOL: Clinical test in humans, single 30-min i.v. infusion, plasma PK
# Type: in vivo
# CONDITION PARAMETERS: human, in vivo, iv, single 30-min i.v. infusion 200 μg/kg, mean
Ends that are not written are not given here.
VALUE KIND: clearance (L/h/kg)
Answers are plain numbers, in L/h/kg.

Enquiry: Endpoint output: clearance of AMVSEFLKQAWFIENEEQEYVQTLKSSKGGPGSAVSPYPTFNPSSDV-NH2 [Peptide 1] . Value?
Return: 0.09

----------
# MEASUREMENT PROTOCOL: PK after single intravenous injection of Peptide 1 in male rats
# Design: species or system male Wistar (CRL: WI(Han)) rats
# CONDITION PARAMETERS: rat, in vivo, single IV 10 mg/kg, initial elimination phase
Ends that are not written are not given here.
VALUE KIND: C0 (µg/mL)
Numbers only, in µg/mL.

Enquiry: Endpoint output: C0 of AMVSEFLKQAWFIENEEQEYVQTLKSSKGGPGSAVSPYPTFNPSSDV-NH2 [Peptide 1] . Value?
Return: 68.9
